target: Melanin Concentrating Hormone Receptor 1 (MCHR1) (Homo sapiens, UniProt Q99705)
Construct: expressed in transfected cells
Sequence (Q99705 whole entry): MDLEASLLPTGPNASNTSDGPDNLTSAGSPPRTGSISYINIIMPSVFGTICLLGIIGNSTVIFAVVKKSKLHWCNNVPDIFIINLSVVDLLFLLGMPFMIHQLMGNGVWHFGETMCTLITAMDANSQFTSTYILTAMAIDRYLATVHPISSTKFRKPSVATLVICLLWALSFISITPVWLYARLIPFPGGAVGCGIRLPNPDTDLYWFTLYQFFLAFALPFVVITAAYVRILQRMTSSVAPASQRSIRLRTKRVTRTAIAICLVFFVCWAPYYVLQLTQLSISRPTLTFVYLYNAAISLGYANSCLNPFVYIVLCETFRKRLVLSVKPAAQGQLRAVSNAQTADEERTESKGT
measurement_description: MCHR1 Receptor Activation Assay (GTPγ^35S)
Format: biochemical
measurement_context: read-out: GTPγ^35S IC50
measurement_kind: IC50 (µM)
Lab book: enter the figure in µM, no units written.

IC50 recorded for this molecule, COc1ccc(-c2nnc(C(=O)N3CC(Oc4ccc(CN5CCCC5)c(F)c4)C3)o2)cc1 , is 0.015

IC50 recorded for this molecule, COc1ccc(-c2nnc(C(=O)N3CC(Oc4ccc(CN5CC(C)(O)C5)cc4)C3)o2)cc1 , is 0.023

IC50 recorded for this molecule, COc1ccc(-c2nnc(C(=O)N3CC(Oc4ccc(CN(C)C)c(F)c4)C3)o2)cc1 , is 0.021

IC50 recorded for this molecule, Cc1cc(OC2CN(C(=O)c3nnc(-c4ccc(Cl)cc4)o3)C2)ccc1CN(C)C , is 0.01

IC50 recorded for this molecule, O=C(c1nnc(-c2ccccc2)o1)N1CC(Oc2ccc(CN3CCC3)cc2)C1 , is 0.026

IC50 recorded for this molecule, CN(C)Cc1ccc(OC2CN(C(=O)c3nnc(-c4ccccc4)o3)C2)cc1 , is 0.034

IC50 recorded for this molecule, COc1ccc(-c2nnc(C(=O)N3CC(Oc4ccc(CN5CCC5)cc4)C3)o2)cc1 , is 0.025

IC50 recorded for this molecule, Cc1cc(CN2CCOCC2)ccc1OC1CN(C(=O)c2nnc(-c3ccc(Cl)cc3)o2)C1 , is 0.01
